target-or-test-system: Muscarine M1 (GPCR-A-MA-ACH M1) (Homo sapiens, UniProt P11229)
Construct: expressed in transfected cells; host or cells: CHO cells
Sequence (P11229 whole entry): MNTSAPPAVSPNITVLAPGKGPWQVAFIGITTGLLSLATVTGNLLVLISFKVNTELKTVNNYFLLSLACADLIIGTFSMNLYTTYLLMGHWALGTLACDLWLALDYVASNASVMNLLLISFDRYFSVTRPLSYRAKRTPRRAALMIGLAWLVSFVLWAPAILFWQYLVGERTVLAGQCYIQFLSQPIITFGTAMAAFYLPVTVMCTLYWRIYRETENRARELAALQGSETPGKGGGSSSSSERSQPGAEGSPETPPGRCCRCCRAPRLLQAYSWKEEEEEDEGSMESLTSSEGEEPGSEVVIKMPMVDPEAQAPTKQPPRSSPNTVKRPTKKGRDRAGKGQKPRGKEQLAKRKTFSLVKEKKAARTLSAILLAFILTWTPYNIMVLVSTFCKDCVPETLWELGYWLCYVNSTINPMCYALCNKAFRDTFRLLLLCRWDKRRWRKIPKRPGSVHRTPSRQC
assay-explanation: Muscarine M1 receptor binding, 3H-Pirenzepine
run-conditions: human M1, CHO cells, ligand 2 nM, 60 min/22° C., read-out: RB Musc. M1 3H-Pirenzepine pKi (converted)

{"columns": ["compound", "qualifying-sign", "Ki / µM"],
 "data": [
  ["CCSc1c[nH]nc1C1=CCCN(C)C1 [Compound 22D]", "=", 1.58],
  ["CCCC(=O)Nc1c[nH]nc1C1=CCCN(C)C1 [Compound 41]", ">", 10],
  ["CCCCCC#Cc1c[nH]nc1C1=CCCN(C)C1 [Compound 45B]", "=", 2],
  ["CCCCCCSc1c[nH]nc1C1=CCCN(C)C1 [Compound 22H]", "=", 0.2],
  ["CC(C)CCSc1c[nH]nc1C1CN2CCC1CC2 (stereo not shown) [Compound 49H]", "=", 0.158],
  ["CN1CCC=C(c2n[nH]cc2C#CCCCc2ccccc2)C1 [Compound 45D]", "=", 2],
  ["Ic1c[nH]nc1[C@@H]1CN2CCC[C@H]1C2 [Compound 59]", "=", 1],
  ["CN1CCC=C(c2n[nH]cc2SCC=Cc2ccccc2)C1 [Compound 22K]", "=", 1.26],
  ["CCCCCOc1c[nH]nc1C1CN2CCC1CC2 (stereo not shown) [Compound 52C]", "=", 1],
  ["CN1CCC=C(c2n[nH]cc2SCc2ccco2)C1 [Compound 22M]", "=", 0.501]
]}

====

pKi overview
target-or-test-system: Muscarine M2 (GPCR-A-MA-ACH M2) (Homo sapiens, UniProt P08172)
Construct: expressed in transfected cells; host or cells: CHO cells
Sequence (P08172 whole entry): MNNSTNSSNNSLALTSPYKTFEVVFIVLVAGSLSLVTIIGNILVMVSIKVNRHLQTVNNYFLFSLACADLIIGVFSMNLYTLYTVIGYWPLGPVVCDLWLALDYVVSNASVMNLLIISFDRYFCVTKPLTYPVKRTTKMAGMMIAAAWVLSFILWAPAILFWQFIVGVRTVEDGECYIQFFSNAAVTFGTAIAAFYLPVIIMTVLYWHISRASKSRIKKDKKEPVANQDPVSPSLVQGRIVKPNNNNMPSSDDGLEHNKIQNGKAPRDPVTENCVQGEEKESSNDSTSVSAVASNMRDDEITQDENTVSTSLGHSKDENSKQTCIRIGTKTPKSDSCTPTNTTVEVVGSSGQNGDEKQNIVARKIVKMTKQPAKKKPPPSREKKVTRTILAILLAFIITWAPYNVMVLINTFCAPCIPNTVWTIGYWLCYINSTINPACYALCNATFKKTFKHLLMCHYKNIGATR
assay-explanation: Muscarine M2 receptor binding
run-conditions: human M2, CHO cells; receptor binding
pKi: −log10 of the molar value.

{"columns": ["molecule", "target-or-test-system", "pKi"],
 "data": [
  ["C=CCCCOc1c[nH]nc1C1=CCCN(C)C1 [Compound 33F]", "Muscarine M2 (GPCR-A-MA-ACH M2) (Homo sapiens, UniProt P08172)", 5.30],
  ["CCCCCSc1nc[nH]c1C1=CCCN(C)C1 [Compound 76A]", "Muscarine M2 (GPCR-A-MA-ACH M2) (Homo sapiens, UniProt P08172)", 5.30],
  ["CCCCCCOc1c[nH]nc1C1=CCCN(C)C1 [Compound 33B]", "Muscarine M2 (GPCR-A-MA-ACH M2) (Homo sapiens, UniProt P08172)", 5.90],
  ["C=CCCCSc1c[nH]nc1C1=CCCN(C)C1 [Compound 22L]", "Muscarine M2 (GPCR-A-MA-ACH M2) (Homo sapiens, UniProt P08172)", 5.70],
  ["CCCCCOc1c[nH]nc1C1=CCCN(C)C1 [Compound 33G]", "Muscarine M2 (GPCR-A-MA-ACH M2) (Homo sapiens, UniProt P08172)", 5.40],
  ["CCOCCSc1c[nH]nc1C1=CCCN(C)C1 [Compound 22O]", "Muscarine M2 (GPCR-A-MA-ACH M2) (Homo sapiens, UniProt P08172)", 5.00],
  ["CN1CCC=C(c2n[nH]cc2SCCC=C(F)F)C1 [Compound 22J]", "Muscarine M2 (GPCR-A-MA-ACH M2) (Homo sapiens, UniProt P08172)", 5.50],
  ["CCCCCCSc1nc[nH]c1C1=CCCN(C)C1 [Compound 76B]", "Muscarine M2 (GPCR-A-MA-ACH M2) (Homo sapiens, UniProt P08172)", 5.20],
  ["CN1CCC=C(c2n[nH]cc2SCCCCCSc2c[nH]nc2C2=CCCN(C)C2)C1 [Compound 22C]", "Muscarine M2 (GPCR-A-MA-ACH M2) (Homo sapiens, UniProt P08172)", 6.40],
  ["CC(C)CCSc1c[nH]nc1C1=CCCN(C)C1 [Compound 22S]", "Muscarine M2 (GPCR-A-MA-ACH M2) (Homo sapiens, UniProt P08172)", 5.70]
]}
